- target.of.assay: Protein S100-A4 (Homo sapiens)
- run.description: human S100A4 peptide interaction inhibition curves – biochemical, fluorescence polarization, cherry-picked hits, dose response (AID 687001)
- experimental.setup: FP, S100A4/TAMRA-myosin IIA peptide binding; series mostly up to 11 µM
Results with a measured potency or affinity are listed apart. The source made the active and inactive calls.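 The calls were made as follows: active = signal-lowering compounds whose fitted half-maximal concentration is at or below twice the top tested dose in every run; inconclusive = runs disagree, flat 30 to 70% inhibition, or poor curve fit; inactive = the rest.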
property.label: activity change, negative = inhibition

CCOc1cc(CNCc2ccccc2)ccc1OCc1ccc(Cl)cc1	inactive
Cc1ccc(-c2csc(NC3OC(=O)c4ccccc43)n2)cc1 (stereo not drawn)	inactive
O=C(c1ccc2c(c1)OCO2)N1CC(=O)N2[C@@H](CO)[C@H](c3ccc(C#Cc4ccccc4)cc3)[C@@H]2C1	inactive
C[C@@H]1CCCCO[C@@H](CN(C)C(=O)Nc2cccc3ccccc23)[C@H](C)CN([C@@H](C)CO)C(=O)c2cc(NC(=O)C3CCCCC3)ccc2O1	inactive
O=C(O)c1ccc2c(c1)C(=O)N(c1cccc3ccccc13)C2=O	inactive
CC(=O)N1c2ccc(S(=O)(=O)N3CCC(C(=O)Nc4ncccc4C)CC3)cc2CC1C (stereo not drawn)	inactive

Inquiry: # get_value(readout='activity change, negative = inhibition', item= `O=C(NCc1cc([N+](=O)[O-])ccc1O)c1cccnc1Sc1ccccc1` )
Reply text: inactive

Inquiry: Now try O=S(=O)(c1ccc2c(c1)CCCN2)N1CCCC2CCCCC21 (stereo not drawn) .
Reply text: inactive

Inquiry: Please do the same for `C[C@@H]1CN([C@H](C)CO)C(=O)c2ccccc2-c2ccccc2CO[C@H]1CN(C)C(=O)Oc1ccccc1` as well.
Reply text: inactive

Inquiry: What do you have for `COc1ccc(CN2CCC(C(=O)Nc3ccc(Oc4cccnc4)cc3)CC2)c(C)c1C` ?
Reply text: inactive

Inquiry: Follow-up item: `COc1ccc(NC(=O)c2ccccc2OCc2c(C)noc2C)cc1OC`
Reply text: inactive

Inquiry: Try the compound `C[C@@H]1CN([C@@H](C)CO)C(=O)c2cc(NC(=O)c3ccncc3)ccc2O[C@@H]1CN(C)Cc1ccncc1`
Reply text: inactive

Inquiry: Next up: `CN1c2ccc(-c3ccccc3)cc2[C@@H]2[C@@H](CCN2C(=O)c2ccccc2)[C@H]1CO`
Reply text: inactive

Inquiry: Next record, please: `COc1ccc(CN2CC3(CN(C(=O)c4ccccc4)C3)c3c([nH]c4cc(OC)ccc34)[C@H]2CO)cc1`
Reply text: inactive
